Examples of substances with documented Mean % difference from parent peptide (FLAG immunoreactivity) follow.
- experimental system: FBXO44^FBA (Homo sapiens, UniProt Q9H4M3)
- Construct: we expressed and purified only this domain for all in vitro studies; 6xHis (N, cleaved yes); MBP (N, cleaved yes); made in house; host or cells: Escherichia coli Rosetta BL21 (λDE3)
- Sequence (Q9H4M3 71-252 limits assumed): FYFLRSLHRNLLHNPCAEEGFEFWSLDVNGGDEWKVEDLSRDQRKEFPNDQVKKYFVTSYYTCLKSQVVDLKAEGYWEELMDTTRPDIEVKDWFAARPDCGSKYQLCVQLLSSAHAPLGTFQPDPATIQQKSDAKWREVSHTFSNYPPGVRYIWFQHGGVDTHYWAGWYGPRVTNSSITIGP
- assay: Peptide microarray (PEPperPRINT), FLAG-FBXO44^FBA binding
- condition info: Table S1; RGS2^5–16 single-residue substitution; 2 μg/ml FBXO44^FBA overnight at 4 °C, PBS 0.005% Tween pH 7.4, anti-FLAG DyLight800 fluorescence; three independent experiments with three technical replicates each

C13D: array RGS2^5–16 peptide, C13 substituted by D (MFLAVQHDDRPM; UniProt P41220 5-16, looked up, variant C13D) ... -75.39%

Q: I am curious: what Mean % difference from parent peptide (FLAG immunoreactivity) value has been reported for D12W: array RGS2^5–16 peptide, D12 substituted by W (MFLAVQHWCRPM; UniProt P41220 5-16, looked up, variant D12W) ?
A: 48.95%

Q: Similarly, C13I: array RGS2^5–16 peptide, C13 substituted by I (MFLAVQHDIRPM; UniProt P41220 5-16, looked up, variant C13I) ?
A: -87.24%

Q: Similarly, M16G: array RGS2^5–16 peptide, M16 substituted by G (MFLAVQHDCRPG; UniProt P41220 5-16, looked up, variant M16G) ?
A: -27.86%

Q: Similarly, R14W: array RGS2^5–16 peptide, R14 substituted by W (MFLAVQHDCWPM) ?
A: 32.54%

Q: Similarly, C13Q: array RGS2^5–16 peptide, C13 substituted by Q (MFLAVQHDQRPM; UniProt P41220 5-16, looked up, variant C13Q) ?
A: -77.02%

Q: Similarly, D12V: array RGS2^5–16 peptide, D12 substituted by V (MFLAVQHVCRPM; UniProt P41220 5-16, looked up, variant D12V) ?
A: 40.66%

###

Examples of substances with documented Mean % difference from parent peptide (FLAG immunoreactivity) follow.
- experimental system: FBXO44^FBA (Homo sapiens, UniProt Q9H4M3)
- Construct: we expressed and purified only this domain for all in vitro studies; 6xHis (N, cleaved yes); MBP (N, cleaved yes); made in house; host or cells: Escherichia coli Rosetta BL21 (λDE3)
- Sequence (Q9H4M3 71-252 limits assumed): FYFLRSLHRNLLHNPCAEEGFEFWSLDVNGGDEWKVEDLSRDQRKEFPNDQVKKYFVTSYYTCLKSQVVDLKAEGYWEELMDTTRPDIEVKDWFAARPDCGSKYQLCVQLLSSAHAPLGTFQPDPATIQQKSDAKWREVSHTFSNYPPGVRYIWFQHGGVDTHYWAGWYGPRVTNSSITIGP
- assay: Peptide microarray (PEPperPRINT), FLAG-FBXO44^FBA binding
- condition info: Table S1; RGS2^5–16 single-residue substitution; 2 μg/ml FBXO44^FBA overnight at 4 °C, PBS 0.005% Tween pH 7.4, anti-FLAG DyLight800 fluorescence; three independent experiments with three technical replicates each
Return type: number; implicit unit %.

Worked cases, answers included:
C13H: array RGS2^5–16 peptide, C13 substituted by H (MFLAVQHDHRPM; UniProt P41220 5-16, looked up, variant C13H) ... -83.62
C13A: array RGS2^5–16 peptide, C13 substituted by A (MFLAVQHDARPM; UniProt P41220 5-16, looked up, variant C13A) ... -72.59

Now let's try a different one.
Q: Under FBXO44^FBA (Homo sapiens, UniProt Q9H4M3): Mean % difference from parent peptide (FLAG immunoreactivity) value of D12T: array RGS2^5–16 peptide, D12 substituted by T (MFLAVQHTCRPM; UniProt P41220 5-16, looked up, variant D12T) ?
A: 32.23

###

- experimental system: FBXO44^FBA (Homo sapiens)
- Construct: we expressed and purified only this domain for all in vitro studies; 6xHis (N, cleaved yes); MBP (N, cleaved yes); made in house; host or cells: Escherichia coli Rosetta BL21 (λDE3)
- Sequence (Q9H4M3 71-252 limits assumed): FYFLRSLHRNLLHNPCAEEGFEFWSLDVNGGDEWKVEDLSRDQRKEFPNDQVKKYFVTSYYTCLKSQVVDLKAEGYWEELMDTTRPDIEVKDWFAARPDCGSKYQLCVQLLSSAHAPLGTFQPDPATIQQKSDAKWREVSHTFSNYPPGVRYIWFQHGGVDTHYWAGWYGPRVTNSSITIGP
- assay: Peptide microarray (PEPperPRINT), FLAG-FBXO44^FBA binding
- condition info: Table S1; RGS2^5–16 single-residue substitution; 2 μg/ml FBXO44^FBA overnight at 4 °C, PBS 0.005% Tween pH 7.4, anti-FLAG DyLight800 fluorescence; three independent experiments with three technical replicates each
Examples of substances with documented Mean % difference from parent peptide (FLAG immunoreactivity) follow.
Return type: number; implicit unit %.

Worked cases, answers included:
C13L: array RGS2^5–16 peptide, C13 substituted by L (MFLAVQHDLRPM; UniProt P41220 5-16, looked up, variant C13L) ... -88.83
D12H: array RGS2^5–16 peptide, D12 substituted by H (MFLAVQHHCRPM; UniProt P41220 5-16, looked up, variant D12H) ... 37.64

Now let's try a different one.
Q: Under FBXO44^FBA (Homo sapiens): Mean % difference from parent peptide (FLAG immunoreactivity) value of M16A: array RGS2^5–16 peptide, M16 substituted by A (MFLAVQHDCRPA; UniProt P41220 5-16, looked up, variant M16A) ?
A: -33.89

###

- experimental system: FBXO44^FBA (Homo sapiens, UniProt Q9H4M3)
- Construct: we expressed and purified only this domain for all in vitro studies; 6xHis (N, cleaved yes); MBP (N, cleaved yes); made in house; host or cells: Escherichia coli Rosetta BL21 (λDE3)
- Sequence (Q9H4M3 71-252 limits assumed): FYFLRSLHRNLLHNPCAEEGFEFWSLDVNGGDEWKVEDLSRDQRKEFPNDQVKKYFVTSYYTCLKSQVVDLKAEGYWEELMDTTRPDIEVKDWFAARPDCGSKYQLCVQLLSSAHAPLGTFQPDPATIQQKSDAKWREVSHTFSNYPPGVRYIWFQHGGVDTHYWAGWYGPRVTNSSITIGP
- assay: Peptide microarray (PEPperPRINT), FLAG-FBXO44^FBA binding
- condition info: Table S1; RGS2^5–16 single-residue substitution; 2 μg/ml FBXO44^FBA overnight at 4 °C, PBS 0.005% Tween pH 7.4, anti-FLAG DyLight800 fluorescence; three independent experiments with three technical replicates each
measured property: Mean % difference from parent peptide (FLAG immunoreactivity) (%)
Return type: number; implicit unit %.

Worked cases, answers included:
D12F: array RGS2^5–16 peptide, D12 substituted by F (MFLAVQHFCRPM; UniProt P41220 5-16, looked up, variant D12F) ... 34.22
D12Y: array RGS2^5–16 peptide, D12 substituted by Y (MFLAVQHYCRPM; UniProt P41220 5-16, looked up, variant D12Y) ... 31.8
M16D: array RGS2^5–16 peptide, M16 substituted by D (MFLAVQHDCRPD; UniProt P41220 5-16, looked up, variant M16D) ... 31.28

Q: I am curious: what Mean % difference from parent peptide (FLAG immunoreactivity) value has been reported for C13P: array RGS2^5–16 peptide, C13 substituted by P (MFLAVQHDPRPM; UniProt P41220 5-16, looked up, variant C13P) ?
A: -84.68

Q: Similarly, D12Q: array RGS2^5–16 peptide, D12 substituted by Q (MFLAVQHQCRPM; UniProt P41220 5-16, looked up, variant D12Q) ?
A: 59.62

Q: Similarly, R14A: array RGS2^5–16 peptide, R14 substituted by A (MFLAVQHDCAPM) ?
A: -27.71
